Provenance of the data: paper PMC7646200

For each entry below, report its Km value.
# METHOD: in vitro
# TEST_PARAMETERS: DBA/2N/Kuo, mouse, pH 7.4
Please state the figure in µM; there is no need to write the unit.

Km reported for this compound COc1ccc(-c2cc3ccc(O)cc3oc2=O)cc1 [compound 11, 3-(4-methoxyphenyl)-7-hydroxycoumarin] : 1.2

Km recorded for this compound, Cc1c(C)c2ccc(O)cc2oc1=O [compound 4, 3,4-dimethyl-7-hydroxycoumarin] , is 0.11

----------
# METHOD: Sulfonation of 7-hydroxycoumarin derivatives by rat liver cytosol
# TEST_PARAMETERS: male, Wistar, rat, liver cytosol, pH 7.4
Exercise: state measured Km for each of the compounds provided.
// note: answer is a bare numeric in µM

Briefly, Km measured for Cc1c(C)c2ccc(O)c(C)c2oc1=O [compound 7, 3,4,8-trimethyl-7-hydroxycoumarin] : 0.8

In plain terms, CCc1c(C)c2ccc(O)c(C)c2oc1=O [compound 6, 3-ethyl-4,8-dimethyl-7-hydroxycoumarin] has a documented Km of 0.99

Input O=c1ccc2ccc(O)cc2o1 [compound 1, 7-hydroxycoumarin, reference compound] . Output Km: 0.18
